inhibition for assorted compounds
Molecular target: Scavenger receptor class B member 1 (Mus musculus)
Experiment: mouse SR-BI DiI-HDL uptake blockers – ldlA[mSR-BI] cells, fluorescence, single point, primary screen (AID 488896);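 note: 0% = median of neutral control wells and 100% = median of positive control wells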
Settings: ldlA[mSR-BI] CHO cells, 3 h, at 12.5 µM, hits give high values
About 3,100 (0.97%) of roughly 320,000 compounds were called active. The sample as a whole holds a higher share of actives than the screen did.
attribute measured: inhibition (%)

>  <structure smiles string>
COc1cccc(C(=O)Nc2ccc(N3CCN(C(=O)c4ccco4)CC3)cc2)c1

>  <assay value>
36.3

$$$$
>  <structure smiles string>
COc1ccc(C(=O)Nc2ccc(N3CCC(C)CC3)cc2)cc1Br

>  <assay value>
94.5

$$$$
>  <structure smiles string>
COc1ccccc1C(=O)NC(=S)Nc1ccccc1N1CCCCC1

>  <assay value>
49.6

$$$$
>  <structure smiles string>
c1ccc(C(=NNc2nc3ccccc3s2)c2ccccn2)cc1

>  <assay value>
40.5

$$$$
>  <structure smiles string>
CCC(=O)Nc1ccccc1N1CCN(S(C)(=O)=O)CC1

>  <assay value>
-20.6

$$$$
>  <structure smiles string>
COc1cccc(C(=O)Nc2nnc(S(=O)(=O)N3CCCCC3)s2)c1

>  <assay value>
-13.3

$$$$
>  <structure smiles string>
COc1cccc(C(=O)NNC(=O)c2cccc(F)c2)c1

>  <assay value>
-14.2

$$$$
>  <structure smiles string>
COc1ccc(OC)c(Nc2nc(-c3ccc(O)c(O)c3)cs2)c1

>  <assay value>
108

$$$$
>  <structure smiles string>
COc1cccc(C(=O)Nc2ccc(N3CCCC3)cc2)c1

>  <assay value>
80.4

$$$$
>  <structure smiles string>
O=C(NCc1ccccc1)c1cccc(NC(=O)C2CCCCC2)c1

>  <assay value>
0.488

$$$$
>  <structure smiles string>
O=C(Nc1ccccc1)c1ccc2c(c1)OCCCO2

>  <assay value>
-9.51

$$$$

* * *

inhibition for assorted molecules
Molecular target: Scavenger receptor class B member 1 (Mus musculus)
Assay: mouse SR-BI DiI-HDL uptake blockers – ldlA[mSR-BI] cells, fluorescence, single point, primary screen (AID 488896);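 note: 0% = median of neutral control wells and 100% = median of positive control wells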
Settings: ldlA[mSR-BI] CHO cells, 3 h, at 12.5 µM, hits give high values
The whole screen tested about 320,000 compounds, of which about 3,100 (0.97%) were called active. Shown is part of a subset that was picked to be rich in actives.

>  <molecule>
COc1ccc(/C=N/N=C2/C(=O)Nc3ccccc32)cc1O

>  <target system>
Scavenger receptor class B member 1 (Mus musculus)

>  <inhibition (%)>
-2.91

$$$$
>  <molecule>
CC[C@]12c3[nH]c4cc(CCC(=O)N(C)C)ccc4c3CCN1C(=O)[C@@H](CC(=O)NCc1ccco1)C[C@@H]2C(=O)N1CCN(C(=O)c2ccco2)CC1

>  <target system>
Scavenger receptor class B member 1 (Mus musculus)

>  <inhibition (%)>
2.87

$$$$
>  <molecule>
O=C(O)c1ccc(NN=CC2=C(N3CCOCC3)/C(=C/c3ccccc3)CC2)cc1

>  <target system>
Scavenger receptor class B member 1 (Mus musculus)

>  <inhibition (%)>
-13

$$$$
>  <molecule>
O=C(Nc1ccn(CCCNCc2ccc3[nH]ccc3c2)c(=O)n1)OCc1ccccc1

>  <target system>
Scavenger receptor class B member 1 (Mus musculus)

>  <inhibition (%)>
14.3

$$$$
>  <molecule>
C(=N\N1CCN(c2ccccn2)CC1)/C1=C(N2CCOCC2)C(=C/c2ccccc2)/CC1

>  <target system>
Scavenger receptor class B member 1 (Mus musculus)

>  <inhibition (%)>
95.8

$$$$
>  <molecule>
COc1ccc(Nc2ccc3ccccc3c2)cc1

>  <target system>
Scavenger receptor class B member 1 (Mus musculus)

>  <inhibition (%)>
31.3

$$$$
>  <molecule>
CC(C)Sc1nc(N)nc2c1ncn2C1OC(CO)C(O)C1O (stereo not given)

>  <target system>
Scavenger receptor class B member 1 (Mus musculus)

>  <inhibition (%)>
-12.5

$$$$
>  <molecule>
O=C(CSc1nnc(N2CCOCC2)n1-c1cccc(F)c1)N1CCN(c2ccccn2)CC1

>  <target system>
Scavenger receptor class B member 1 (Mus musculus)

>  <inhibition (%)>
0.884

$$$$
>  <molecule>
O=C1NCC(Nc2ccccc2)C(=O)N1 (stereo not given)

>  <target system>
Scavenger receptor class B member 1 (Mus musculus)

>  <inhibition (%)>
-24.4

$$$$
>  <molecule>
COc1ccc2c(c1)C(=O)CC(c1ccccc1)O2 (stereo not given)

>  <target system>
Scavenger receptor class B member 1 (Mus musculus)

>  <inhibition (%)>
17.3

$$$$

* * *

Molecular target: Scavenger receptor class B member 1 (Mus musculus)
Experiment: mouse SR-BI DiI-HDL uptake blockers – ldlA[mSR-BI] cells, fluorescence, single point, primary screen (AID 488896);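 note: 0% = median of neutral control wells and 100% = median of positive control wells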
Settings: ldlA[mSR-BI] CHO cells, 3 h, at 12.5 µM, hits give high values
About 3,100 (0.97%) of roughly 320,000 compounds were called active. For the sample, actives were picked, then their nearest neighbours and some compounds at random.
inhibition for assorted molecules

>  <molecule>
CN(C(=O)c1cccc(NC(=O)Cc2ccc(NC(=O)C3CCN(C(=O)C4CCCCC4)CC3)cc2)c1)C1CCC1

>  <target system>
Scavenger receptor class B member 1 (Mus musculus)

>  <scale unit>
%

>  <inhibition>
28.2

$$$$
>  <molecule>
COc1ccc(CC(=O)NC(C)c2ccc(Cl)c(Cl)c2)cc1S(=O)(=O)N1CCOCC1 (stereo not given)

>  <target system>
Scavenger receptor class B member 1 (Mus musculus)

>  <scale unit>
%

>  <inhibition>
4.63

$$$$
>  <molecule>
COc1ccc(Nc2nc(-c3cccnc3)nc3ccccc23)cn1

>  <target system>
Scavenger receptor class B member 1 (Mus musculus)

>  <scale unit>
%

>  <inhibition>
31.9

$$$$
>  <molecule>
CCCCC(=O)NC(c1ccc(OC)c(OC)c1)c1ccc2cccnc2c1O (stereo not given)

>  <target system>
Scavenger receptor class B member 1 (Mus musculus)

>  <scale unit>
%

>  <inhibition>
3.38

$$$$
>  <molecule>
O=C(CCC(=O)N1CCN(S(=O)(=O)c2ccc(Cl)cc2)CC1)NCc1cccc(C(F)(F)F)c1

>  <target system>
Scavenger receptor class B member 1 (Mus musculus)

>  <scale unit>
%

>  <inhibition>
-6.5

$$$$
>  <molecule>
O=C(COc1ccc(/C=N/NC(=O)c2ccc(O)cc2)cc1)Nc1ccc([N+](=O)[O-])cc1

>  <target system>
Scavenger receptor class B member 1 (Mus musculus)

>  <scale unit>
%

>  <inhibition>
24.6

$$$$
>  <molecule>
Cc1cc(C)cc(OCC(=O)NC(C)c2ccccc2)c1 (stereo not given)

>  <target system>
Scavenger receptor class B member 1 (Mus musculus)

>  <scale unit>
%

>  <inhibition>
-23.6

$$$$
>  <molecule>
Cc1ccc(OCC(=O)NC(C)c2ccccc2)cc1C (stereo not given)

>  <target system>
Scavenger receptor class B member 1 (Mus musculus)

>  <scale unit>
%

>  <inhibition>
0.888

$$$$
>  <molecule>
CCCCCC(=O)NC(=S)NNC(=O)c1ccc([N+](=O)[O-])cc1

>  <target system>
Scavenger receptor class B member 1 (Mus musculus)

>  <scale unit>
%

>  <inhibition>
11.5

$$$$
>  <molecule>
Cc1cccc(-c2nc(Nc3ccc(O)cc3)c3ccccc3n2)c1

>  <target system>
Scavenger receptor class B member 1 (Mus musculus)

>  <scale unit>
%

>  <inhibition>
74.9

$$$$

* * *

Molecular target: Scavenger receptor class B member 1 (Mus musculus) (UniProt Q61009)
Sequence (Q61009 whole entry, looked up): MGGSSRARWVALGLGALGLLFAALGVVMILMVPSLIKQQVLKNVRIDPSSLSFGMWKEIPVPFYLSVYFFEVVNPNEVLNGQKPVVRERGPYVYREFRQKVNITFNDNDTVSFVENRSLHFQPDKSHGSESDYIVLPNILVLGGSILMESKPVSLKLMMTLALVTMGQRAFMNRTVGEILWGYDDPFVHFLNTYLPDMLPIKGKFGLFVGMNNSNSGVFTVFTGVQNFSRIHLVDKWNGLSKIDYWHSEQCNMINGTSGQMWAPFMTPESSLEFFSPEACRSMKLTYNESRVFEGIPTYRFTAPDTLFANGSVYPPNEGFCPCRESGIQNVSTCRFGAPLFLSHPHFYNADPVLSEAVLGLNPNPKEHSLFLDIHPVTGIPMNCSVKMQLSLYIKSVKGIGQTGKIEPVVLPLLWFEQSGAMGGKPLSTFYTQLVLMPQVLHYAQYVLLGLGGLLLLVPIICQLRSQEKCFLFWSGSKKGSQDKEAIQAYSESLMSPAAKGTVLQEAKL
Experiment: mouse SR-BI DiI-HDL uptake blockers – ldlA[mSR-BI] cells, fluorescence, single point, primary screen (AID 488896);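 note: 0% = median of neutral control wells and 100% = median of positive control wells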
Conditions: ldlA[mSR-BI] CHO cells, 3 h, at 12.5 µM, hits give high values
Screen size: about 320,000 compounds; about 3,100 (0.97%) were called active. This excerpt belongs to a sample that is enriched for actives.
inhibition for assorted compounds

>  <compound>
COC1=NC2=NCCN2C(OC)=N1

>  <scale unit>
%

>  <inhibition>
-7.98

$$$$
>  <compound>
COc1ccc(CCNc2nc(-c3cccc(NC(C)=O)c3)cs2)cc1OC

>  <scale unit>
%

>  <inhibition>
75.5

$$$$
>  <compound>
CC(C)CN1CC(C)C(=O)N(c2ccccc2)C1=S (stereo unspecified)

>  <scale unit>
%

>  <inhibition>
-3.77

$$$$
>  <compound>
Cc1ccc(-n2c(SCC(=O)N/N=C/C=C/c3ccccc3[N+](=O)[O-])nc3ccccc3c2=O)cc1

>  <scale unit>
%

>  <inhibition>
74

$$$$
>  <compound>
COc1ccc(Br)cc1C(=O)NC(=S)Nc1cc(-c2nc3ccccc3[nH]2)ccc1C

>  <scale unit>
%

>  <inhibition>
60.8

$$$$
>  <compound>
O=C(Cc1ccc(Cl)cc1)c1ccccc1

>  <scale unit>
%

>  <inhibition>
1.95

$$$$
>  <compound>
COc1cc(OC)c(C(=O)Nc2ccccc2-c2ccccc2)cc1OC

>  <scale unit>
%

>  <inhibition>
20.8

$$$$
>  <compound>
O=[N+]([O-])c1cc(S(=O)(=O)Nc2cccc(Cl)c2)ccc1N=Nc1c(O)[nH]c2ccccc12

>  <scale unit>
%

>  <inhibition>
101

$$$$
>  <compound>
COC(=O)c1c(NC(C)=O)sc(C(=O)Nc2ccccc2OC)c1C

>  <scale unit>
%

>  <inhibition>
71.5

$$$$
>  <compound>
CC(=O)Nc1ccc(-c2csc(NC=C3C(=O)OC(C)(C)OC3=O)n2)cc1

>  <scale unit>
%

>  <inhibition>
4.07

$$$$
>  <compound>
CCC(=O)Nc1sc(C(=O)Nc2ccccc2)c(C)c1C(=O)OC

>  <scale unit>
%

>  <inhibition>
68.4

$$$$
